Taken from paper PMC4629265.

# Test system: Vero cells
# assay_explanation: Cytotoxicity on Vero cells, CPE method
# Assay type: cell-based
# condition_summary: 3 d
TC50: recorded values
assay_endpoint: TC50 (µM)

>>> endpoint_value("CCCCc1ccc(NC(=O)c2ccc(OC)c(NC)c2)cc1")
41.12
>>> endpoint_value("CCC(=O)Nc1cc(C(=O)Nc2ccc(C(C)(C)C)cc2)ccc1O")
86.08
>>> endpoint_value("CNc1cc(C(=O)Nc2cccc(Cl)c2)ccc1OC")
110.50

###

# Test system: HCV
# assay_explanation: Anti-HCV assay in infected Huh7.5 cells, HCV RNA by RT-PCR
# Assay type: cell-based
# condition_summary: Hepatitis C virus, Huh7.5, 96 h, read-out: IC50 (anti-HCV activity)
pIC50: −log10 of the molar value.
Given measured pIC50, output rule met if it is greater than or equal to 5 and rule not met if not.

>>> class_assignment("CCC[C@H](NC(=O)[C@@H]1[C@H]2CCC[C@H]2CN1C(=O)[C@@H](NC(=O)[C@@H](NC(=O)c1cnccn1)C1CCCCC1)C(C)(C)C)C(=O)C(=O)NC1CC1 [VX-950, telaprevir, reference compound]")
"rule met"
>>> class_assignment("CCC(=O)Nc1cccc(C(=O)Nc2ccc(Cl)cc2)c1")
"rule met"
>>> class_assignment("CCC(=O)Nc1cc(C(=O)Nc2ccc(C(C)(C)C)cc2)ccc1OC")
"rule met"
>>> class_assignment("CNc1cc(C(=O)Nc2ccc(C3CCCCC3)cc2)ccc1OC")
"rule not met"
>>> class_assignment("CNc1cccc(C(=O)Nc2ccc(Cl)cc2)c1")
"rule not met"
>>> class_assignment("CCC(=O)Nc1cc(C(=O)Nc2ccc(C3CCCCC3)cc2)ccc1OC")
"rule met"
>>> class_assignment("CNc1cc(C(=O)Nc2ccc(C(C)(C)C)cc2)ccc1OC")
"rule not met"

###

# System: Vero cells
# assay_explanation: Cytotoxicity on Vero cells, CPE method
# Assay type: cell-based
# condition_summary: 3 d
assay_endpoint: TC50 (µM)

>>> endpoint_value("CCOC(=O)c1ccc(OCCC2CCN(c3ccc(C)nn3)CC2)cc1 [Pirodavir, pirodavir, reference compound]")
49.78
>>> endpoint_value("CCC(=O)Nc1cc(C(=O)Nc2ccc(C#N)cc2)ccc1OC")
297.67
>>> endpoint_value("CCCCc1ccc(NC(=O)c2ccc(OC)c(NC(=O)CC)c2)cc1")
36.24
>>> endpoint_value("CCC(=O)Nc1cc(C(=O)Nc2ccc(N3CCN(C)CC3)cc2)ccc1OC")
291.60
>>> endpoint_value("CNc1cc(C(=O)CNc2ccc(Cl)cc2)ccc1OC")
73.10
>>> endpoint_value("CCC(=O)Nc1cc(C(=O)CNc2ccc(C)cc2)ccc1OC")
98.31
>>> endpoint_value("CNc1cc(C(=O)Nc2ccc(C(C)(C)C)cc2)ccc1OC")
34.23
>>> endpoint_value("CNc1cc(C(=O)CNc2ccccc2)ccc1OC")
167.11
>>> endpoint_value("CCC(=O)Nc1cc(C(=O)Nc2ccc(Cl)cc2)ccc1O")
100.79
>>> endpoint_value("CCC(=O)Nc1cccc(C(=O)Nc2ccc(Cl)cc2)c1")
106.12
>>> endpoint_value("CCC(=O)Nc1cc(C(=O)Nc2ccc(C(C)(C)C)cc2)ccc1OC")
36.24

###

# assay_explanation: Cytotoxicity in Huh7.5 cells, MTT assay
# Assay type: cell-based
# condition_summary: human
Label MET when CC50 at 96 h is strictly below 60 µM; at or above that, label NOT MET.

>>> class_assignment("CCC[C@H](NC(=O)[C@@H]1[C@H]2CCC[C@H]2CN1C(=O)[C@@H](NC(=O)[C@@H](NC(=O)c1cnccn1)C1CCCCC1)C(C)(C)C)C(=O)C(=O)NC1CC1 [VX-950, telaprevir, reference compound]")
"MET"
>>> class_assignment("CCC(=O)Nc1cc(C(=O)Nc2ccc(C(C)(C)C)cc2)ccc1OC")
"MET"
>>> class_assignment("CNc1cc(C(=O)Nc2ccc(C3CCCCC3)cc2)ccc1OC")
"MET"
>>> class_assignment("CNc1cc(C(=O)Nc2ccc(C(C)(C)C)cc2)ccc1OC")
"MET"
>>> class_assignment("CCC(=O)Nc1cc(C(=O)Nc2ccc(C3CCCCC3)cc2)ccc1OC")
"NOT MET"
>>> class_assignment("CCC(=O)Nc1cccc(C(=O)Nc2ccc(Cl)cc2)c1")
"NOT MET"
>>> class_assignment("CNc1cccc(C(=O)Nc2ccc(Cl)cc2)c1")
"NOT MET"

###

# Tested on: Vero cells
# assay_explanation: Cytotoxicity on Vero cells, CPE method
# Type: cell-based
# condition_summary: 3 d
Recorded TC50 by entry
assay_endpoint: TC50

>>> endpoint_value("CNc1cccc(C(=O)Nc2ccc(Cl)cc2)c1 [Compound 42]")
">28.5 µM"
>>> endpoint_value("CCc1ccc(NC(=O)c2ccc(OC)c(NC)c2)cc1 [Compound 29]")
">26.09 µM"
>>> endpoint_value("CCC(=O)Nc1cc(C(=O)Nc2ccc(C(C)C)cc2)ccc1OC [Compound 22]")
">65.35 µM"
>>> endpoint_value("CCC(=O)Nc1cc(C(=O)CNc2ccc(C(C)(C)C)cc2)ccc1OC [Compound 50]")
">20.14 µM"
